molecular target: GlcNAc(b1-2)[GlcNAc(b1-6)]Man(a1-6)[GlcNAc(b1-2)Man(a1-3)]Man(b1-4)GlcNAc(b1-4)GlcNAc; test: glycan array binding signal (z-score within array); higher = stronger binding; details: glycan notation: IUPAC condensed, linker removed
Only a selection was taken, and the strongest signals are over-represented in it overall.
readout.kind: glycan array binding signal (z-score)

Recorded results for 3 binders are shown here.
{"columns": ["binder", "glycan array binding signal (z-score)"],
 "data": [
  ["PpFlo1 (Pichia pastoris) (protein) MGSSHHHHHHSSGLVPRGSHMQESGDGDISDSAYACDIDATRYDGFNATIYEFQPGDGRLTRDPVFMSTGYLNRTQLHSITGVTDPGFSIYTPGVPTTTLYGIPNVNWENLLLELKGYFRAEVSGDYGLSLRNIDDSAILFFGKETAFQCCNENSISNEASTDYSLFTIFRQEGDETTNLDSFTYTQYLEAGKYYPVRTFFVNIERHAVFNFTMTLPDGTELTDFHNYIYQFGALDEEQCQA", -0.18],
  ["GSL-I (Griffonia simplicifolia) (protein) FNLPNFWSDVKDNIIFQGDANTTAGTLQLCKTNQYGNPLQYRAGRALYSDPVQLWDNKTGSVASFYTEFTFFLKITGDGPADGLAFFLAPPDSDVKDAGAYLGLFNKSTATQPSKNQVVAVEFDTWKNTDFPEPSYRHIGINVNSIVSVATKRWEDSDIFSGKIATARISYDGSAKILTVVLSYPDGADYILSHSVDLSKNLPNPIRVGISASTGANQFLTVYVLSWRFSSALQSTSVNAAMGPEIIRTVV", -0.121],
  ["Gal 7 (Homo sapiens) (protein) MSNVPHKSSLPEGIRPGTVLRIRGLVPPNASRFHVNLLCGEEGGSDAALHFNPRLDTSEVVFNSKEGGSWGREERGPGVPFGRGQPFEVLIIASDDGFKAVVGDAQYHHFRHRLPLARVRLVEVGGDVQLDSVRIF", -0.2]
]}

Let's switch to this binder now.
Prompt line: Please give the measured glycan array binding signal (z-score) for this binder: SP15308F-bth-333-19-333 (Bacteroides thetaiotaomicron) (protein) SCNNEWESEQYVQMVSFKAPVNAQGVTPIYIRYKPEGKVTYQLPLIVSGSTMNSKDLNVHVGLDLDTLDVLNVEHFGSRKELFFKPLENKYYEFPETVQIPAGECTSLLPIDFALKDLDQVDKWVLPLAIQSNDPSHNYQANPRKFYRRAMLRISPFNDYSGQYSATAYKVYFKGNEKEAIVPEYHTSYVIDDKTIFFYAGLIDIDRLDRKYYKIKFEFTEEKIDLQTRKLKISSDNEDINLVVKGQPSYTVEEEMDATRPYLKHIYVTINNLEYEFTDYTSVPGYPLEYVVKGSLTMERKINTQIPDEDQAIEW
Response line: -0.327
